Below, each of the compounds is paired with its reported zone of inhibition at 2000 µM value.
Test system: Escherichia coli
Assay: Antimicrobial activity against Escherichia coli X580 at 2 mM after overnight incubation by agar diffusion method
Format: functional
Conditions: read-out: DIZ
Number in mm, nothing else.

Past entries and their recorded results:
{"smilesEntry": "CC(C)(C)OC(=O)N1CCN(c2ccc(N3C[C@H](COC(=O)NO)OC3=O)cc2F)CC1", "outputUnit": "mm", "quantitativeReadout": 0}
{"smilesEntry": "CC(=O)NC[C@H]1CN(c2ccc(N3CCOCC3)c(F)c2)C(=O)O1", "outputUnit": "mm", "quantitativeReadout": 0}
{"smilesEntry": "O=C(NO)OC[C@H]1CN(c2ccc(N3CCSCC3)c(F)c2)C(=O)O1", "outputUnit": "mm", "quantitativeReadout": 20}

Please find the next compound below.
**Query** Reported zone of inhibition at 2000 µM for Escherichia coli, given `O=C(NO)OC[C@H]1CN(c2ccc(N3CCOCC3)c(F)c2)C(=O)O1` ?
**Result** 0

----------
Below, each of the compounds is paired with its reported zone of inhibition at 2000 µM value.
System: Pseudomonas aeruginosa
Assay: Antimicrobial activity against wild type Pseudomonas aeruginosa K799 at 2 mM after overnight incubation by agar diffusion method
Format: functional
Settings: read-out: DIZ
Number in mm, nothing else.

{"smilesEntry": "O=C(O)c1cn(C2CC2)c2cc(N3CCNCC3)c(F)cc2c1=O", "assayReadout": "zone of inhibition at 2000 µM", "outputUnit": "mm", "quantitativeReadout": 35}
{"smilesEntry": "CC(=O)OC[C@H]1CN(c2ccc(N3CCOCC3)c(F)c2)C(=O)O1", "assayReadout": "zone of inhibition at 2000 µM", "outputUnit": "mm", "quantitativeReadout": 0}
{"smilesEntry": "O=C(NO)OC[C@H]1CN(c2ccc(N3CCSCC3)c(F)c2)C(=O)O1", "assayReadout": "zone of inhibition at 2000 µM", "outputUnit": "mm", "quantitativeReadout": 0}

**Query** What value of zone of inhibition at 2000 µM has been reported for the following compound? `CC(C)(C)OC(=O)N1CCN(c2ccc(N3C[C@H](COC(=O)N[C@H]4C=C[C@@H](O)CC4)OC3=O)cc2F)CC1`
**Result** 0

**Query** Could you do the same for `O=C(N[C@H]1C=C[C@@H](O)CC1)OC[C@H]1CN(c2ccc(N3CCSCC3)c(F)c2)C(=O)O1` , please?
**Result** 0

**Query** Could you do the same for `O=C1O[C@@H](CO)CN1c1ccc(N2CCOCC2)c(F)c1` , please?
**Result** 0

**Query** Could you do the same for `O=C(NO)OC[C@H]1CN(c2ccc(N3CCOCC3)c(F)c2)C(=O)O1` , please?
**Result** 0

**Query** Could you do the same for `CC(=O)NC[C@H]1CN(c2ccc(N3CCOCC3)c(F)c2)C(=O)O1` , please?
**Result** 0

**Query** Could you do the same for `O=C1O[C@@H](CO)CN1c1ccc(N2CCSCC2)c(F)c1` , please?
**Result** 0

----------
Tested on: Enterococcus faecalis
Assay: Antimicrobial activity against vancomycin-resistant Enterococcus faecalis 1528 at 2 mM after overnight incubation by agar diffusion method
Assay type: functional
Settings: read-out: DIZ
assayReadout: zone of inhibition at 2000 µM (mm)
Number in mm, nothing else.

{"compound": "O=C1O[C@@H](COC(=O)N2OC3C=CC2CC3)CN1c1ccc(N2CCOCC2)c(F)c1 (some centres not stated)", "assayReadout": "zone of inhibition at 2000 µM", "quantitativeReadout": 16}
{"compound": "O=C(N[C@H]1C=C[C@@H](O)C1)OC[C@H]1CN(c2ccc(N3CCOCC3)c(F)c2)C(=O)O1", "assayReadout": "zone of inhibition at 2000 µM", "quantitativeReadout": 12}
{"compound": "CC(C)(C)OC(=O)N1CCN(c2ccc(N3C[C@H](COC(=O)N4OC5C=CC4CC5)OC3=O)cc2F)CC1 (some centres not stated)", "assayReadout": "zone of inhibition at 2000 µM", "quantitativeReadout": 12}
{"compound": "O=C1O[C@@H](COC(=O)N2OC3C=CC2C3)CN1c1ccc(N2CCOCC2)c(F)c1 (some centres not stated)", "assayReadout": "zone of inhibition at 2000 µM", "quantitativeReadout": 19}

**Query** What value of zone of inhibition at 2000 µM has been reported for the following compound? `O=C(O)c1cn(C2CC2)c2cc(N3CCNCC3)c(F)cc2c1=O`
**Result** 15

**Query** Could you do the same for `O=C(N[C@H]1C=C[C@@H](O)CC1)OC[C@H]1CN(c2ccc(N3CCOCC3)c(F)c2)C(=O)O1` , please?
**Result** 12

**Query** Could you do the same for CC(C)(C)OC(=O)N1CCN(c2ccc(N3C[C@H](COC(=O)N4OC5C=CC4C5)OC3=O)cc2F)CC1 (some centres not stated) , please?
**Result** 16

----------
Test system: Staphylococcus aureus
Test: Antimicrobial activity against methicillin-resistant Staphylococcus aureus 143/93 at 2 mM after overnight incubation by agar diffusion method
Assay type: functional
Conditions: read-out: DIZ
Below, each of the compounds is paired with its reported zone of inhibition at 2000 µM value.
Number in mm, nothing else.

Past entries and their recorded results:
{"compound": "O=C(N[C@H]1C=C[C@@H](O)C1)OC[C@H]1CN(c2ccc(N3CCOCC3)c(F)c2)C(=O)O1", "outputUnit": "mm", "quantitativeReadout": 14}
{"compound": "O=C(O)c1cn(C2CC2)c2cc(N3CCNCC3)c(F)cc2c1=O", "outputUnit": "mm", "quantitativeReadout": 0}

Please find the next compound below.
**Query** What value of zone of inhibition at 2000 µM has been reported for the following compound? O=C1O[C@@H](COC(=O)N2OC3C=CC2CC3)CN1c1ccc(N2CCOCC2)c(F)c1 (stereo partly drawn)
**Result** 18

----------
System: Staphylococcus aureus
Experiment: Antimicrobial activity against methicillin-resistant Staphylococcus aureus 143/93 at 2 mM after overnight incubation by agar diffusion method
Type: functional
Conditions: read-out: DIZ
assayReadout: zone of inhibition at 2000 µM (mm)
Number in mm, nothing else.

Past entries and their recorded results:
{"compound": "O=C1O[C@@H](COC(=O)N2OC3C=CC2C3)CN1c1ccc(N2CCOCC2)c(F)c1 (some centres undefined)", "zone of inhibition at 2000 µM (mm)": 25}
{"compound": "O=C(N[C@H]1C=C[C@@H](O)CC1)OC[C@H]1CN(c2ccc(N3CCOCC3)c(F)c2)C(=O)O1", "zone of inhibition at 2000 µM (mm)": 14}
{"compound": "CC(C)(C)OC(=O)N1CCN(c2ccc(N3C[C@H](COC(=O)N4OC5C=CC4CC5)OC3=O)cc2F)CC1 (some centres undefined)", "zone of inhibition at 2000 µM (mm)": 14}

Please find the next compound below.
**Query** What value of zone of inhibition at 2000 µM has been reported for the following compound? CC(C)(C)OC(=O)N1CCN(c2ccc(N3C[C@H](COC(=O)N4OC5C=CC4C5)OC3=O)cc2F)CC1 (some centres undefined)
**Result** 19
